Species on record: Rattus norvegicus
test description: Evaluated for intrinsic GH secretory potency as half maximal release of GH in the rat pituitary cell assay.
Format: functional
run conditions: Pituitary gland cell
measure: pEC50
Would you please state pEC50, meaning minus log10 of the concentration in mol/L, as a bare number?

# annotated cases, reported pEC50 shown
CC1(C)C2CCC1(CS(=O)(=O)N1CCC3(CCc4ccccc43)CC1)C(NC(=O)[C@@H]1CCCN(C[C@H](O)CO)C1)C2 (stereo partly specified) ... 6.10
Cc1ccccc1N1CCN(S(=O)(=O)CC23CCC(CC2NC(=O)[C@@H]2CCCNC2)C3(C)C)CC1 (stereo partly specified) ... 6.87

Reported pEC50 for CC1(C)C2CCC1(CS(=O)(=O)N1CCC3(CCc4ccccc43)CC1)C(NC(=O)[C@@H]1CCCNC1)C2 (stereo partly specified) was 6.85

Reported pEC50 for CC1(C)C2CCC1(CS(=O)(=O)N1CCC3(CCc4ccccc43)CC1)C(NC(=O)C1CCNCC1)C2 (stereo unspecified) was 5.02

Reported pEC50 for C[C@@H](O)CN1CCC[C@@H](C(=O)NC2CC3CCC2(CS(=O)(=O)N2CCC4(CCc5ccccc54)CC2)C3(C)C)C1 (stereo partly specified) was 7.05

Reported pEC50 for CC1(C)C2CCC1(CS(=O)(=O)N1CCC3(CCc4ccccc43)CC1)C(NC(=O)C1CCCNC1)C2 (stereo unspecified) was 6.52

Data origin, for the record: ChEMBL document CHEMBL1129712
